tested on: S. aureus RN4220; experiment: growth inhibition call (relative growth <= 0.2); conditions: 50 µM
Out of some 39,000 compounds screened, about 500 (1.3%) were called active. For the sample, actives were picked, then their nearest neighbours and some compounds at random.
Output constraint: value belongs to T = active, F = inactive

## Task Kindly provide the recorded test outcome for the following molecule: COc1ccc(NC(=O)Nc2cccc3c2O[C@H](CN(C)S(=O)(=O)c2cn(C)cn2)[C@@H](C)CN([C@H](C)CO)C3=O)cc1
## Result F

## Task Proceed to C=CCc1ccc(O)c(OC)c1
## Result T

## Task Proceed to N=C(N=C(N)N)NCCc1ccccc1
## Result F

## Task Proceed to NNCCc1ccccc1
## Result T

## Task Proceed to C[C@@H]1CN([C@H](C)CO)C(=O)CCCn2cc(nn2)CO[C@H]1CN(C)S(C)(=O)=O
## Result F

## Task Proceed to O=C(C[C@H]1CC[C@@H]2[C@H](COC[C@H](O)CN2C(=O)Nc2ccc(C(F)(F)F)cc2)O1)NCCc1ccncc1
## Result T

## Task Proceed to O=C(C[C@H]1CC[C@@H]2[C@H](COC[C@H](O)CN2C(=O)Nc2ccc(Cl)cc2)O1)NCCc1ccncc1
## Result F

## Task Proceed to NNCCc1ccccc1.O=S(=O)(O)O
## Result F

## Task Proceed to O=C(C[C@@H]1CC[C@@H]2[C@H](COC[C@@H](O)CN2C(=O)Nc2ccc(Cl)cc2)O1)NCCc1ccncc1
## Result F

## Task Proceed to COc1cc(C=O)ccc1O
## Result F

---

system: S. aureus RN4220; assay: growth inhibition call (relative growth <= 0.2); conditions: 50 µM
In all, about 39,000 compounds went through this assay and about 500 (1.3%) were called active. For the sample, actives were picked, then their nearest neighbours and some compounds at random.
experimentalReadout: growth inhibition call

Solved cases below.
C[C@H](CO)N1C[C@H](C)[C@H](CN(C)S(=O)(=O)c2ccccc2)OCCCC[C@H](C)Oc2ccc(NS(=O)(=O)c3cn(C)cn3)cc2C1=O; inactive
NCC[C@H](O)C(=O)N[C@@H]1C[C@H](N)[C@@H](O[C@H]2O[C@H](CN)[C@@H](O)[C@H](O)[C@H]2O)[C@H](O)[C@H]1O[C@H]1O[C@H](CO)[C@@H](O)[C@H](N)[C@H]1O; active
C[C@H]1CN([C@@H](C)CO)S(=O)(=O)c2ccc(C#CC3(O)CCCC3)cc2O[C@H]1CN(C)C(=O)Cc1ccccc1; inactive
NCC1OC(OC2C(CO)OC(OC3C(O)C(N)CC(N)C3OC3OC(CO)C(O)C(O)C3N)C2O)C(N)C(O)C1O.O=S(=O)(O)O (stereo not drawn); active
NCC1OC(OC2C(N)CC(N)C(OC3OC(CO)C(O)C(N)C3O)C2O)C(O)C(O)C1O.O=S(=O)(O)O (stereo not drawn); inactive

## Task Consider the compound shown here: CN[C@@H]1[C@@H](O[C@@]2(C)O[C@H](CO)[C@@H](N)[C@H](O)[C@H]2O)O[C@H]2C[C@@H](N)[C@@H](O[C@H]3[C@H](O)[C@@H](O)[C@H](N)C[C@@H]3N)O[C@@H]2[C@@H]1O What is its recorded growth inhibition call?
## Result inactive

## Task Proceed to CC1CCc2c(N3CCC(O)CC3)c(F)cc3c(=O)c(C(=O)O)cn1c23 (stereo not drawn)
## Result inactive

## Task Proceed to NC[C@H]1O[C@H](O[C@H]2[C@H](O[C@@H]3O[C@H](CO)[C@@H](O)[C@H]3O)[C@@H](O)[C@H](N)C[C@@H]2N)[C@H](N)[C@@H](O)[C@@H]1O
## Result inactive

## Task Proceed to CC1CCc2cc(F)cc3c(=O)c(C(=O)O)cn1c23 (stereo not drawn)
## Result active

## Task Proceed to CC1COc2c(N3CCN(C)CC3)c(F)cc3c(=O)c(C(=O)O)cn1c23 (stereo not drawn)
## Result active
